pIC50 tested on Tyrosine-protein phosphatase non-receptor type 1 (Homo sapiens, UniProt P18031): recorded values
Sequence (P18031 whole entry): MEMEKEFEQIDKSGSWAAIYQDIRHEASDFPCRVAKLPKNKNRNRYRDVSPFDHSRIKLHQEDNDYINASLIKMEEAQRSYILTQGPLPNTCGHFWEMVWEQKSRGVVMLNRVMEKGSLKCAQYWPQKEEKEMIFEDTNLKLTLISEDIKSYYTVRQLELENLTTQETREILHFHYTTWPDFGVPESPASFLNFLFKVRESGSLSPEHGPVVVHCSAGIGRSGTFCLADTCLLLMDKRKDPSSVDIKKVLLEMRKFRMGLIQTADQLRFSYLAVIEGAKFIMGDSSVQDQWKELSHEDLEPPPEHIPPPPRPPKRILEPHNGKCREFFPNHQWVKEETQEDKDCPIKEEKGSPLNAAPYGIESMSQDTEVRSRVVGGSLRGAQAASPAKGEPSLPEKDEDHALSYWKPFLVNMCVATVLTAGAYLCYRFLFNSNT
pIC50: −log10 of the molar value.

{"SMI": "C=C1CC[C@@H]2[C@H](CC2(C)C)[C@@]2(CC[C@@H]1O)C[C@H](c1ccccc1)c1c(O)c(C=O)c(O)c(C=O)c1O2", "pIC50": 4.96}
{"SMI": "CC(C)[C@@H]1CC[C@@H](C)[C@H]2C[C@@]3(O)[C@H](c4ccccc4)c4c(O)c(C=O)c(O)c(C=O)c4O[C@]3(C)C=C12", "pIC50": 5.21}
{"SMI": "C=C1CC[C@@H]2[C@H](CC2(C)C)[C@@]2(CC[C@H]1O)C[C@H](c1ccccc1)c1c(O)c(C=O)c(O)c(C=O)c1O2", "pIC50": 5.33}
{"SMI": "CC(C)[C@@H]1CC[C@@H](C)[C@]2(O)C[C@@H]3[C@H](c4ccccc4)c4c(O)c(C=O)c(O)c(C=O)c4O[C@]3(C)C=C12", "pIC50": 4.72}
